# methodSummary: Inhibition of alpha glucosidase (unknown origin) using pNPG as substrate preincubated for 15 mins followed by substrate addition measured for 30 mins
# Design: species or system Homo sapiens
# assaySetup: read-out: IC50
experimentalEndpoint: pIC50
Numbers only, as −log10 of the molar value.

molecule | experimentalEndpoint | numericValue
O=C(CC(c1ccc([N+](=O)[O-])cc1)C(C(=O)Nc1ccccn1)C(=O)Nc1ccccn1)c1ccccc1 (centres undefined) | pIC50 | 4.65
O=C(CC(c1ccc(F)cc1)C(C(=O)Nc1ccccn1)C(=O)Nc1ccccn1)c1ccccc1 (centres undefined) | pIC50 | 4.29
O=C(CC(c1ccccc1)C(C(=O)Nc1ccccn1)C(=O)Nc1ccccn1)c1ccccc1 (centres undefined) | pIC50 | 4.30
O=C(CC(c1ccc(Cl)cc1)C(C(=O)Nc1ccccn1)C(=O)Nc1ccccn1)c1ccccc1 (centres undefined) | pIC50 | 4.84
O=C(CC(c1ccc(Cl)cc1)C(C(=O)Nc1ccccn1)C(=O)Nc1ccccn1)c1ccc2ccccc2c1 (centres undefined) | pIC50 | 4.93

Kindly give each listed record's pIC50.
1. O=C(CC(c1ccc(Cl)cc1Cl)C(C(=O)Nc1ccccn1)C(=O)Nc1ccccn1)c1ccccc1 (centres undefined)
2. O=C(CC(c1ccccc1)C(C(=O)Nc1ccccn1)C(=O)Nc1ccccn1)c1ccc(F)cc1 (centres undefined)

**Result**
[4.90, 4.27]

The following molecules each have a reported value; give each one's pIC50.
1. Cc1cc(C)c(C(CC(=O)c2ccccc2)C(C(=O)Nc2ccccn2)C(=O)Nc2ccccn2)c(C)c1 (centres undefined)
2. O=C(CC(c1ccc(F)cc1)C(C(=O)Nc1ccccn1)C(=O)Nc1ccccn1)c1ccc(F)cc1 (centres undefined)

**Result**
[4.74, 4.44]
